Collected pKi values appear next to each entry.
experimental system: Coagulation factor X (Homo sapiens, UniProt P00742)
Sequence (P00742 41-179 limits assumed): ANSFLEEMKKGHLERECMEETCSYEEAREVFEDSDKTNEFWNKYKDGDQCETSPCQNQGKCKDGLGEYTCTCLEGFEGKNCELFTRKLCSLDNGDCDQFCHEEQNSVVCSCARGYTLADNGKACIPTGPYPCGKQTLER
Sequence (P00742 235-488 limits assumed): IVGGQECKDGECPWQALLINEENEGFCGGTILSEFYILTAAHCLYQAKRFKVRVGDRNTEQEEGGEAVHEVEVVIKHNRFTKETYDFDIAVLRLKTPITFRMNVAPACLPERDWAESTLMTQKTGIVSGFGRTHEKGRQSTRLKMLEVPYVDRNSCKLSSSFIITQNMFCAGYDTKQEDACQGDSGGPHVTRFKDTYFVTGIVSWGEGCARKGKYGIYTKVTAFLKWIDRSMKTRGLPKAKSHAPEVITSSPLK
test summary: Inhibition of human activated Factor X using S-2765 as substrate incubated for 15 mins followed by substrate addition and measured after 1 hr by chromogenic assay
pKi: −log10 of the molar value.
property name: pKi

smiles representation | result
CCOC(=O)[C@]1(C)CCC[C@@]2(C)[C@@H]3CC[C@@]4(C)C[C@]3(CC[C@@H]21)C/C4=N\OC/C=C/c1ccc(CN2CCOCC2)cc1 | 5.60
CCOC(=O)[C@]1(C)CCC[C@@]2(C)[C@@H]3CC[C@@]4(C)C[C@]3(CC[C@@H]21)C/C4=N\OC/C=C/c1ccc2c(c1)COC2=O | 4.68
CCOC(=O)[C@]1(C)CCC[C@@]2(C)[C@@H]3CC[C@@]4(C)C[C@]3(CC[C@@H]21)C/C4=N\OC/C=C/c1ccc(-c2cnco2)cc1 | 5.71
CCOC(=O)[C@]1(C)CCC[C@@]2(C)[C@@H]3CC[C@@]4(C)C[C@]3(CC[C@@H]21)C/C4=N\OC/C=C/c1ccc2[nH]ccc2c1 | 5.33
CCOC(=O)[C@]1(C)CCC[C@@]2(C)[C@@H]3CC[C@@]4(C)C[C@]3(CC[C@@H]21)CC4=O | 5.34
CCOC(=O)[C@]1(C)CCC[C@@]2(C)[C@@H]3CC[C@@]4(C)C[C@]3(CC[C@@H]21)C/C4=N\OC/C=C/c1ccc2oc3ccccc3c2c1 | 4.68
